Dear all, this message contains pIC50 results, target or system c-Src (Homo sapiens).
Numbers only, as −log10 of the molar value.

Some solved cases for reference:
{"structure_as_smiles": "COc1ccc(Cl)c(Nc2c(C#N)cnc3cc(-c4csc(CN5CCOCC5)c4)ccc23)c1", "reading": 8.70}
{"structure_as_smiles": "CN(C)CC#Cc1ccc2c(Nc3ccc(Cl)cc3Cl)c(C#N)cnc2c1", "reading": 7.20}
{"structure_as_smiles": "COc1cc(Nc2c(C#N)cnc3cc(-c4ccc(N5CCN(C)CC5)nc4)ccc23)c(Cl)cc1Cl", "reading": 8.72}

# context switch: different molecule, same pIC50
Given CCN(CC)Cc1ccc(-c2ccc3c(Nc4cc(OC)c(Cl)cc4Cl)c(C#N)cnc3c2)cc1 , state its recorded pIC50. 9.34
